Test system: human platelets
Test: Platelet aggregation inhibitory activities in vitro (ADP-induced, human platelet-rich plasma)
Assay type: cell-based
Details: Homo sapiens, Platelet; solution immediately after dissolving; ADP final concentration 4 μM; 37° C.; read-out: IC50 Immediately after preparation
IC50 vs 60 ng/mL: less than gives criterion met; not less than gives criterion not met.

Some solved entries appear below for comparison.
compound="CCCCC[C@H](O)C#C[C@@H]1[C@@H]2[C@H](C[C@H]1O)O/C(=C\\CCCC(=O)O)C2(F)F [Compound 31, reference compound]" group="criterion not met"
compound="CCC#CCC(C)[C@H](O)/C=C/[C@@H]1[C@@H]2[C@H](C[C@H]1O)O/C(=C\\CCCC(=O)O)C2(F)F (stereo partly drawn) [Compound 15]" group="criterion met"
compound="Cc1cccc(C[C@H](O)/C=C/[C@@H]2[C@@H]3[C@H](C[C@H]2O)O/C(=C\\CCCC(=O)O)C3(F)F)c1 [Compound 21]" group="criterion met"
compound="CCC#CC[C@H](C)[C@@H](O)/C=C/[C@@H]1[C@@H]2[C@H](C[C@H]1O)O/C(=C\\CCCC(=O)O)C2(F)F [Compound 27]" group="criterion met"
compound="O=C(O)CCC/C=C1\\O[C@H]2C[C@@H](O)[C@H](/C=C/[C@@H](O)C3CCCC3)[C@H]2C1(F)F [Compound 13]" group="criterion not met"

Input: Dear colleague, could you confirm whether IC50 of Cc1cccc(C[C@@H](O)/C=C/[C@@H]2[C@@H]3[C@H](C[C@H]2O)O/C(=C\CCCC(=O)O)C3(F)F)c1 [Compound 29] falls below 60 ng/mL? Thanks.
Output: criterion not met

Input: Consider CCCCC[C@H](O)/C=C/[C@@H]1[C@@H]2[C@H](C[C@H]1O)O/C(=C\CCCC(=O)O)C2(F)F [Compound 19] . Does its IC50 lie strictly below 60 ng/mL?
Output: criterion met

Input: Input CCCC[C@H](C)C[C@H](O)/C=C/[C@@H]1[C@@H]2[C@H](C[C@H]1O)O/C(=C\CCCC(=O)O)C2(F)F [Compound 11] ; condition: IC50 strictly below 60 ng/mL. Does it hold?
Output: criterion met
